Attribution: ChEMBL document CHEMBL1126208

System: HCT-116
assay procedure: Compound was tested for its in vitro cytotoxicity in HCT-VP35 cell line after 72 hours
Type: functional, cell-based
run conditions: Homo sapiens, HCT-116, 72 h
measured parameter: IC50

[
  {
    "smiles structure": "COc1cc([C@@H]2c3cc(OC(=O)OCc4ccccc4)c(OC(=O)OCc4ccccc4)cc3[C@@H](O[C@@H]3O[C@@H]4CO[C@@H](C)O[C@H]4[C@H](O)[C@H]3O)[C@H]3COC(=O)[C@H]23)cc(OC)c1O",
    "measured parameter": "IC50",
    "result": "11.8 µg/mL"
  },
  {
    "smiles structure": "CCCCCCCC(=O)Oc1cc2c(cc1OC(=O)CCCCCCC)[C@@H](O[C@@H]1O[C@@H]3CO[C@@H](C)O[C@H]3[C@H](O)[C@H]1O)[C@H]1COC(=O)[C@@H]1[C@@H]2c1cc(OC)c(O)c(OC)c1",
    "measured parameter": "IC50",
    "result": "21.7 µg/mL"
  }
]
